SYSTEM_NAME: D(1A) dopamine receptor (Homo sapiens)
Sequence (P21728 whole entry): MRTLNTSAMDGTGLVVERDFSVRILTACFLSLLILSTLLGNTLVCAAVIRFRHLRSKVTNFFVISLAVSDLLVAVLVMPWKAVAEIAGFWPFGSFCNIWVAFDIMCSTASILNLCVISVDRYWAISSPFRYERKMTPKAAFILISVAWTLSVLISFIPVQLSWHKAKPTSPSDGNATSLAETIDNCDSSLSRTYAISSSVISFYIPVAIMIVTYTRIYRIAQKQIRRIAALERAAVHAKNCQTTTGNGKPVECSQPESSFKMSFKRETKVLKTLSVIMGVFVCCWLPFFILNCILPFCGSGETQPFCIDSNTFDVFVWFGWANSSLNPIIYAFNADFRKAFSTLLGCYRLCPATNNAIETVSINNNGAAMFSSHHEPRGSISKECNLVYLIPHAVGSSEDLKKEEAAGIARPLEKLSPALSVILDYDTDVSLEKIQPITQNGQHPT
ASSAY_SUMMARY: Positive allosteric modulator activity at human dopamine D1 receptor expressed in HEK293 cells assessed as potentiation of dopamine-induced cAMP accumulation by measuring dopamine EC50 at 50 uM measured after 30 mins by HitHunter assay (Rvb = 214 nM)
METRIC_NAME: pEC50
pEC50 field: float, defined as -log10 of concentration (mol/L).

Identify pEC50 associated with the compound `Cn1c2ccccc2c(=O)c2c(=O)n(-c3ccccc3)c(C3CCCCC3)nc21` 6.91

###

SYSTEM_NAME: D(1B) dopamine receptor (Homo sapiens, UniProt P21918)
Sequence (P21918 whole entry): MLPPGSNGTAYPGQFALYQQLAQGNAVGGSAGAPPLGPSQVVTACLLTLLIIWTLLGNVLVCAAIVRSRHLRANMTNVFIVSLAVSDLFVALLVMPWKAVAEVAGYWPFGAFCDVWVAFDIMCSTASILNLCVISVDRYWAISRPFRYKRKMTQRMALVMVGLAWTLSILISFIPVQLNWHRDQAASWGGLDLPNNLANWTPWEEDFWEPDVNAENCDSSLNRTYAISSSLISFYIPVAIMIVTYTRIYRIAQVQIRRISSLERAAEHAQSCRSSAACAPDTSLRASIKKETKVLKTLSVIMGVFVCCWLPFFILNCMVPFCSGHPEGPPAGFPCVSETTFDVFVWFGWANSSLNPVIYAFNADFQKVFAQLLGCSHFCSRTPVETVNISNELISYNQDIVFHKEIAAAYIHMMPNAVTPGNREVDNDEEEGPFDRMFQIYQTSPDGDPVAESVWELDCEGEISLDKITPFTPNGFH
ASSAY_SUMMARY: Positive allosteric modulator activity at human dopamine D5 receptor expressed in CHO-K1 cells assessed as potentiation of dopamine-induced beta-arrestin2 recruitment by measuring dopamine EC50 at 50 uM incubated for 90 mins by PathHunter assay (Rvb = 81.7 nM)
Kindly state pEC50 for each of the entries shown.
pEC50 field: float, defined as -log10 of concentration (mol/L).

Identify pEC50 associated with the molecule `Cc1ccc(-n2c(C3CCCCC3)nc3c(c(=O)c4ccccc4n3C)c2=O)cc1` 7.57

Identify pEC50 associated with the molecule `Cn1c2ccccc2c(=O)c2c(=O)n(-c3ccccc3)c(C3CCCC3)nc21` 7.10

Identify pEC50 associated with the molecule `Cn1c2ccccc2c(=O)c2c(=O)n(-c3ccccc3)c(C3CC3)nc21` 7.02

Identify pEC50 associated with the molecule `Cn1c2ccccc2c(=O)c2c(=O)n(-c3ccc(Cl)cc3)c(C3CCCCC3)nc21` 7.36

Identify pEC50 associated with the molecule `Cn1c2ccccc2c(=O)c2c(=O)[nH]c(C3CCCC3)nc21` 7.09

###

SYSTEM_NAME: D(1B) dopamine receptor (Homo sapiens, UniProt P21918)
ASSAY_SUMMARY: Positive allosteric modulator activity at human dopamine D5 receptor expressed in CHO-K1 cells assessed as potentiation of dopamine-induced beta-arrestin2 recruitment by measuring dopamine EC50 at 50 uM incubated for 90 mins by PathHunter assay (Rvb = 81.7 nM)
METRIC_NAME: pEC50
pEC50 field: float, defined as -log10 of concentration (mol/L).

Identify pEC50 associated with the compound `CC(C)Cc1nc2c(c(=O)c3ccccc3n2C)c(=O)n1-c1ccc(Cl)cc1` 7.25

Identify pEC50 associated with the compound `CC(C)Cc1nc2c(c(=O)c3ccccc3n2C)c(=O)n1-c1cccc(Cl)c1` 7.20

Identify pEC50 associated with the compound `Cn1c2ccccc2c(=O)c2c(=O)n(-c3cccc(Cl)c3)c(C3CCCCC3)nc21` 7.10

Identify pEC50 associated with the compound `COc1ccc(-n2c(C3CCCC3)nc3c(c(=O)c4ccccc4n3C)c2=O)cc1Cl` 7.55

Identify pEC50 associated with the compound `COc1ccc(-n2c(C3CCCCC3)nc3c(c(=O)c4ccccc4n3C)c2=O)cc1Cl` 7.23

Identify pEC50 associated with the compound `Cc1ccc(-n2c(CC(C)C)nc3c(c(=O)c4ccccc4n3C)c2=O)cc1` 7.36

Identify pEC50 associated with the compound `Cn1c2ccccc2c(=O)c2c(=O)n(-c3cccc(Cl)c3)c(C3CCCC3)nc21` 7.37

Identify pEC50 associated with the compound `Cc1ccc(-n2c(C3CCCC3)nc3c(c(=O)c4ccccc4n3C)c2=O)cc1` 7.57

Identify pEC50 associated with the compound `Cn1c2ccccc2c(=O)c2c(=O)n(-c3ccccc3)c(C3CCCCC3)nc21` 7.54

Identify pEC50 associated with the compound `Cn1c2ccccc2c(=O)c2c(=O)n(-c3ccccc3)c(CC3CCCCC3)nc21` 7.31
